# test.description: differentiation induction in ER-HoxA9 progenitors – cell-based, lysozyme-GFP, flow cytometry, Cherry Pick01, dose response (AID 651745)
# run.parameters: ER-HoxA9 myeloid progenitors, lysozyme-GFP differentiation, flow cytometry; at 19.9 µM (top of the series)
Class (by percent GFP positive (differentiation)) -- class 0: < 4%; class 1: ≥ 4% and < 8%; class 2: ≥ 8%

>  <compound>
Cc1cccn2c(=O)c(/C=C3\SC(=S)NC3=O)c(NCCCN3CCOCC3)nc12

>  <classification>
class 2

$$$$
>  <compound>
CCOC(=O)C1=C(CN2CCc3ccccc32)NC(=O)NC1c1cccc([N+](=O)[O-])c1 (stereo not given)

>  <classification>
class 2

$$$$
>  <compound>
O=C(CCCN1C(=O)/C(=C/c2ccco2)SC1=S)Nc1cccc(C(=O)O)c1

>  <classification>
class 1

$$$$
>  <compound>
Cc1ccc(OCc2nnc(SCc3nc4ccccc4[nH]3)n2Cc2ccco2)cc1

>  <classification>
class 0

$$$$
>  <compound>
O=c1[nH][nH]cc1C=Nc1ccccc1O

>  <classification>
class 0

$$$$
>  <compound>
COc1ccc(-n2c(C)cc(/C=C3\SC(=S)N(Cc4ccco4)C3=O)c2C)cc1

>  <classification>
class 1

$$$$
>  <compound>
C/C(N)=C(/C#N)C(=O)COC(=O)c1cc(C)n(-c2ccc(F)cc2)c1C

>  <classification>
class 2

$$$$
>  <compound>
CCC(CO)n1c(SCc2cc(=O)oc3cc(C)ccc23)nc2ccccc2c1=O (stereo not given)

>  <classification>
class 0

$$$$
>  <compound>
COc1ccccc1NC(=O)c1cccc(S(=O)(=O)N2CCN(c3ccccc3)CC2)c1

>  <classification>
class 1

$$$$
>  <compound>
Cn1c(-c2ccccc2)c[n+]2c1-c1ccccc1C2

>  <classification>
class 0

$$$$
